# TEST_TARGET: Voltage-dependent T-type calcium channel subunit alpha-1G (Homo sapiens, UniProt O43497)
# Sequence (O43497 whole entry): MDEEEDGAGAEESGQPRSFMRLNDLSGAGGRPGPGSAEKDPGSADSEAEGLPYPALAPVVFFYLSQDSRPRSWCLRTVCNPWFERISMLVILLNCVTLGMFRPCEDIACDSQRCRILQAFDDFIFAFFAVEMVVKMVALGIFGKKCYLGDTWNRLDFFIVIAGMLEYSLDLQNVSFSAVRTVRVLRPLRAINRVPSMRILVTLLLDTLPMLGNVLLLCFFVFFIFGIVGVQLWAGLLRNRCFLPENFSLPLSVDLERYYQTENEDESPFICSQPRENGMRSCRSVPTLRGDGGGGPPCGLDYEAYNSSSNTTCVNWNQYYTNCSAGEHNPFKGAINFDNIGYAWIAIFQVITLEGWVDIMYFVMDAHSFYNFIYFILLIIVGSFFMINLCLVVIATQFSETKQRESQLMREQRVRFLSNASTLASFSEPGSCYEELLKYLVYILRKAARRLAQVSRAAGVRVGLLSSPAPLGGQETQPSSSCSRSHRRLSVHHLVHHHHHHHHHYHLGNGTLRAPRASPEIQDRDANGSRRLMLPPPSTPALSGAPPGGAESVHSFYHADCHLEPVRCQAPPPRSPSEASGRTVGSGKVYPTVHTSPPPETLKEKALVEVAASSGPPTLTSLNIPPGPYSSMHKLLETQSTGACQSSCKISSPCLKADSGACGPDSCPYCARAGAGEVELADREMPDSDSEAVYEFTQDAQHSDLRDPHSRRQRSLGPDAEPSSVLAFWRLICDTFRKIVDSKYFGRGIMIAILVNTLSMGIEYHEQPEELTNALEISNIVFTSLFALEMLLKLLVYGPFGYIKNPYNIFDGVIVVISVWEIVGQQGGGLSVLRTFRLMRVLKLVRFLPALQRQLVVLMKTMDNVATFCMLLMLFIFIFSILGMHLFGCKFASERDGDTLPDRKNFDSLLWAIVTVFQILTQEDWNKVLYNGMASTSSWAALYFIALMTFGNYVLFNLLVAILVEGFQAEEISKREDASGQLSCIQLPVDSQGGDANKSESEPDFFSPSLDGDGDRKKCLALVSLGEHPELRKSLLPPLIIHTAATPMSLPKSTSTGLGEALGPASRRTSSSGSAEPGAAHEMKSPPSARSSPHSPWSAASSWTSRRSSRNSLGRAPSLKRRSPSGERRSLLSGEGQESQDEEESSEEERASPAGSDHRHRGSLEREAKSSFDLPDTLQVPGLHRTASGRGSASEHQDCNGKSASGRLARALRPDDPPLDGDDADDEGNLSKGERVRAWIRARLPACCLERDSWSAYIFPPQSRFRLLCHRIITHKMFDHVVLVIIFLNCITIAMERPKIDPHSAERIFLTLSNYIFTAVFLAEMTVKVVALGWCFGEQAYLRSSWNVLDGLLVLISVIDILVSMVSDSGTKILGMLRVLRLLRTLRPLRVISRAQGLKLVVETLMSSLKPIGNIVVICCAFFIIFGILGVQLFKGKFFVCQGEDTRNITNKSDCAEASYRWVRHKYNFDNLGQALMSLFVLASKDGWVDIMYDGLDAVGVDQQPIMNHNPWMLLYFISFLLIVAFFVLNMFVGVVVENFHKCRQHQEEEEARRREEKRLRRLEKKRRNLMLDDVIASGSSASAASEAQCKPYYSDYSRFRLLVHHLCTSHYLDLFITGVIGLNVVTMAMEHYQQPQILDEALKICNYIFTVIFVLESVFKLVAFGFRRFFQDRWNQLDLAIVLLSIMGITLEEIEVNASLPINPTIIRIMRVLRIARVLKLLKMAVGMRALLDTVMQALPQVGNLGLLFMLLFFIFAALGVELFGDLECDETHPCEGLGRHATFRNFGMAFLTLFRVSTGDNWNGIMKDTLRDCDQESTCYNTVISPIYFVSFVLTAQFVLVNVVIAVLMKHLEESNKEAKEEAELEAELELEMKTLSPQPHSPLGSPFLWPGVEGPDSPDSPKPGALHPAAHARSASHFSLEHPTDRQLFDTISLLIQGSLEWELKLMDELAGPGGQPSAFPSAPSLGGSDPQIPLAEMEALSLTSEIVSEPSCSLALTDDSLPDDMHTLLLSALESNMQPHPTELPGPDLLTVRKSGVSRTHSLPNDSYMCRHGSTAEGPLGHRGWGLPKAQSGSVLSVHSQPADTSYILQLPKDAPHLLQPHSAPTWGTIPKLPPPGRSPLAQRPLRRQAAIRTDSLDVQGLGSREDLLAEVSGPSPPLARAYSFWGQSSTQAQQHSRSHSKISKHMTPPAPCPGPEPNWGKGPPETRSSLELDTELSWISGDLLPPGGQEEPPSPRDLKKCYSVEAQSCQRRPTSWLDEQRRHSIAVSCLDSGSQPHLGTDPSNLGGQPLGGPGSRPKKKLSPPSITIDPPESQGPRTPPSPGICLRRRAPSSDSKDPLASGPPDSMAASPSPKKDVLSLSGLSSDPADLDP
# PROCEDURE_TEXT: Ability to block calcium channel T type 3.1v expressed in HEK293 cells by whole cell patch clamp method
VALUE_KIND: IC50 (nM)

MOLECULE	REPORTED
C[C@H](NC(=O)[C@@H]1COC(=O)[C@H](Cc2ccc([N+](=O)[O-])cc2)N1)c1ccccc1	2130
O=C(NCc1ccccc1)[C@@H]1COC(=O)[C@H](Cc2ccc(F)cc2)N1 (relative stereo)	2750
C[C@H](NC(=O)[C@H]1COC(=O)[C@H](Cc2ccc(F)cc2)N1)c1ccccc1	1480
CC(C)[C@@H]1N[C@H](C(=O)NCc2ccccc2)COC1=O (relative stereo)	990
C[C@H](NC(=O)[C@H]1COC(=O)[C@H](Cc2ccc(Cl)cc2)N1)c1ccccc1	1330
O=C(NCc1ccccc1)[C@@H]1COC(=O)[C@H](Cc2ccc([N+](=O)[O-])cc2)N1 (relative stereo)	1130
O=C(NCc1ccccc1)[C@@H]1COC(=O)[C@H](Cc2ccccc2)N1 (relative stereo)	1010
CCC(C)[C@@H]1N[C@H](C(=O)NCc2ccccc2)COC1=O (some centres undefined)	1220
CSCC[C@@H]1N[C@H](C(=O)NCc2ccccc2)COC1=O (relative stereo)	1860
COc1ccc(C[C@@H]2N[C@H](C(=O)NCc3ccccc3)COC2=O)cc1 (relative stereo)	2040
O=C(NC1CCCCC1)[C@@H]1COC(=O)[C@H](Cc2ccccc2)N1 (relative stereo)	2180
C[C@H](NC(=O)[C@@H]1COC(=O)[C@H](Cc2ccc(Cl)cc2)N1)c1ccccc1	1610
O=C(NCc1ccccc1)[C@@H]1COC(=O)[C@H](Cc2ccc(Cl)cc2)N1 (relative stereo)	450
C[C@H](NC(=O)[C@@H]1COC(=O)[C@H](Cc2ccc(O)cc2)N1)c1ccccc1	1390
